B1: tRNA (parent)
chain: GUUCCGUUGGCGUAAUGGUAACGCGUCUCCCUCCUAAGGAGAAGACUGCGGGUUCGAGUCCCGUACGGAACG

variants of: B1; experiment: yeast fitness relative to wild type (ratio to wild type); higher = fitter; tRNA-Arg(CCU), competitive growth, 37 C, YPD
Fewer inactive variants are shown than the library holds.
Overview of reported yeast fitness across a group of variants:
// no unit string in output, number only

Example results:
Quick one: give measured yeast fitness for GUUCAGUUGGCGUAAUGGUAGCACGUCUCCCUCCUAAGGAGAAGACUGCGGGUUCGAGUCCCGUACCGAACG [C5A A21G G23A G67C] 0.591

Determine its reported yeast fitness: GUUCCGUUGGCGUAAUGGUAACGCGUCUCCGUUCUAAGGAGAAGACUGCGGGUUCGAGUCCCGUACGGAACG [C31G C33U] 0.673

Note yeast fitness for the variant shown: GUUCUGUUGGCGUAAUGGUAACGCGUCUCCCUCCUAAGGAGAAGACUGCGGCUUCGAGUCCCGUAUGGAACG [C5U G52C C66U] 0.57

# return recorded yeast fitness for entry GUUCCGAUGGCGUAAUGGUAACGCGUCUCCCUCCUAAGGAGAACACUGCGGGUUCGAGUCCCGUACGGAACG [U7A G44C] 0.718

Read the entry GUUCCGUGUGCGUAAUGGUAACGCGUCUCACUCCUAAGGAGAAGACUGCGGGUUCGAGUCACGUACGGAACG [U8G G9U C30A C61A] and write its reported yeast fitness. 0.539

Specify measured yeast fitness for GUUCCGUUGGCGUAAUGGUAACGCGUCUCCCUCCUAAGAAGAAGACUGCGGGUUCGAGUUCCGUACGGAACG [G39A C60U] . 0.81

State its yeast fitness: GUUCCGUUCGCGUAAUGGUAACGCGUGUCCCUCCUAAGGAGAAGACUGCGGCUUCGAGUCCCGUACGGAACG [G9C C27G G52C] 0.595

Complete the entry with yeast fitness for GUUCCGUUGAUGUAAUGGUAACGCGUCUACCUCAUAAGGAGAAAACUGCGGGUUCGAGUCCCGUAGGGAACG [G10A C11U C29A C34A G44A C66G] 0.545

New cases:
Specify measured yeast fitness for GUUCCCUUGGCGUAAUGGUAACGCGUCUCCCUCCUAAGGAGAAGACUGCGGGUUCGGGUCCCGUGUGGAACG [G6C A57G A65G C66U] . 0.537
